# Test system: OVCAR-8 ovarian
# Experiment: NCI-60 one-dose screen, 48 h
# Test context: 10 µM unless noted
About 83,000 compounds went through this panel and 20% of them were active in at least one assay; those are over-represented in the sample as a whole. Active and inactive are the calls of the source. The calls were made as follows: active = growth percent below 10; inactive = the rest.
Possible outcomes: T for active, F for inactive

INSERT INTO assay_data (compound, test_system, cat) VALUES
  ('N#Cc1c(N)c(C(=O)c2ccc3c(c2)OCCO3)n2c1CCCC2', 'OVCAR-8 ovarian', 'F'),
  ('C=C(C)c1ccc(/C=N/NC(N)=S)cc1', 'OVCAR-8 ovarian', 'F'),
  ('C#CC[C@@H]1C[C@]2(C)[C@H]3CC[C@@H]4[C@H]5C(C(=C)C)CC[C@]5(C(=O)NCCCN5CCN(CCCN)CC5)CC[C@@]4(C)[C@]3(C)CC[C@H]2C(C)(C)[C@H]1OC(C)=O (stereo partly drawn)', 'OVCAR-8 ovarian', 'T'),
  ('C=CCn1c(C)nc2cc(Nc3nc(Nc4ccc5nc(C)n(CC=C)c5c4)nc4ccccc34)ccc21', 'OVCAR-8 ovarian', 'F'),
  ('O=C(c1ccc(C(F)(F)F)c(Cl)c1)N(Cc1ccc(Cl)cc1)c1ccc(-c2cc(C(F)(F)F)[nH]n2)c(O)c1', 'OVCAR-8 ovarian', 'F'),
  ('CCn1c(CN2CCN(Cc3ccccc3)CC2)nc2cc(NC(=O)c3cccs3)ccc21', 'OVCAR-8 ovarian', 'T'),
  ('CC(C)[C@H](CN)NC[C@H](C)NS(=O)(=O)c1ccc(C(C)(C)C)cc1', 'OVCAR-8 ovarian', 'F'),
  ('C/C(CC(=O)NNc1ccc([N+](=O)[O-])cc1)=N\Nc1ccc([N+](=O)[O-])cc1', 'OVCAR-8 ovarian', 'F');

====

Listing: growth of selected compounds
# Test system: NCI-H226 lung
# Experiment: NCI-60 one-dose screen, 48 h (100 = growth as untreated, 0 = no growth, -100 = all killed)
# Test context: 10 µM unless noted
This is part of a sample that, as a whole, favours compounds with a hit. Of some 83,000 tested, about 20% had one in any assay. The source made the active and inactive calls. How the source made its calls: active means growth percent below 10; inactive means the rest.
Measurement name: growth

INSERT INTO results (compound, test_system, measurement_name, value_reported) VALUES
  ('CCCCOc1ncnc2nc[nH]c12', 'NCI-H226 lung', 'growth', '94.2% (inactive)'),
  ('Cc1ccc(N=CNN=C(N)N)cc1', 'NCI-H226 lung', 'growth', '92% (inactive)'),
  ('CCCC(CCC)NCC(O)c1cc(-c2ccc(C(F)(F)F)cc2)nc(C(F)(F)F)c1 (stereo unspecified)', 'NCI-H226 lung', 'growth', '-69.5% (active)'),
  ('CC(=O)OC1Oc2cc(C)c(C)cc2-c2oc(=O)c(-c3cc4ccccc4oc3=O)cc21 (stereo unspecified)', 'NCI-H226 lung', 'growth', '124% (inactive)'),
  ('CC1=C(C(=O)Nc2ccc(F)cc2)C(c2ccc(C)cc2)C2=C(CC(C)(C)CC2=O)N1 (stereo unspecified)', 'NCI-H226 lung', 'growth', '89.8% (inactive)'),
  ('CCCNC(=S)N/N=C(\C)c1ccccn1', 'NCI-H226 lung', 'growth', '21.5% (inactive)');

====

# Test system: NCI-H322M lung
# Experiment: NCI-60 one-dose screen, 48 h (100 = growth as untreated, 0 = no growth, -100 = all killed)
# Test context: 10 µM unless noted
About 83,000 compounds went through this panel and 20% of them were active in at least one assay; those are over-represented in the sample as a whole.
Mark satisfied for reported growth of 70% or greater; mark not satisfied for anything smaller.

INSERT INTO assay_data (smiles_string, cat) VALUES
  ('CNC(=O)c1ccccc1Sc1ccc2c(/C=C/c3ccccn3)n[nH]c2c1', 'not satisfied'),
  ('O=C(O)/C=C(\c1nc2ccc([N+](=O)[O-])cc2[nH]1)c1cc(Cl)ccc1O', 'not satisfied'),
  ('COc1ccc(NC(=O)/C=C/c2ccc(Cl)c(Cl)c2)cn1', 'satisfied'),
  ('Cc1cc(-c2nnc(/C=C/c3ccc4c(c3)OCO4)o2)n[nH]1', 'not satisfied'),
  ('COc1ccc(/C(=C\c2cc(OC)c(OC)c(OC)c2)C(=O)N2CCNCC2)cc1', 'satisfied');

====

# Test system: SNB-19 CNS
# Experiment: NCI-60 one-dose screen, 48 h (100 = growth as untreated, 0 = no growth, -100 = all killed)
# Test context: 10 µM unless noted
The panel holds about 83,000 compounds, 20% with a hit somewhere; the sample as a whole holds those more often.
Listing: growth of selected compounds
Measurement name: growth (%)

INSERT INTO assay_data (compound, test_system, value_reported) VALUES
  ('CCOC(=O)C(Nc1ccccc1)C(=O)OCC', 'SNB-19 CNS', 105),
  ('COc1cc(C2CC(c3ccc(Cl)cc3)=NN2C=O)ccc1OS(=O)(=O)c1ccc(C)cc1 (configuration not stated)', 'SNB-19 CNS', 86.7),
  ('Oc1ccc(CCCCCCc2ccc(O)cc2)cc1', 'SNB-19 CNS', 112),
  ('NNC(=O)Cc1ccccc1', 'SNB-19 CNS', 93.1),
  ('CC(=O)c1ccc(Nc2nc(Cl)nc(Oc3c(Cl)cccc3Cl)n2)cc1', 'SNB-19 CNS', 81.9),
  ('CC1=NOCC(=O)N1', 'SNB-19 CNS', 95.6),
  ('O=C(Nc1cnc(C(F)(F)F)cn1)c1cc(Cl)ccc1O', 'SNB-19 CNS', 24.3);

====

# Test system: HCT-15 colon
# Experiment: NCI-60 one-dose screen, 48 h
# Test context: 10 µM unless noted
# Procedure: Growth inhibition of the HCT-15 human tumor cell line is measured as a screen for anti-cancer activity. Cells are grown in 96 well plates and exposed to the test compound for 48 hours. Compounds are tested at a single concentration, which is 10^-5 M for most compounds. The reported endpoint is percent growth (GI% or GIPRCNT), where numbers from 0 - 100% represent growth inhibition, and numbers from -100% - 0 represent cell death. For example, a value of 40 represents 60% growth inhibition. […]
Compounds without any hit were thinned out: in the full panel of roughly 83,000, 20% have a hit. Active and inactive are the calls of the source. How the source made its calls: active means growth percent below 10; inactive means the rest.
Possible outcomes: class 1 = active, class 0 = inactive

INSERT INTO results (compound, test_system, cat) VALUES
  ('COc1ccc(-c2cn(-c3cccc(C(=O)/C=C/c4ccc(O)c(OC)c4)c3)c(=O)[nH]2)cc1', 'HCT-15 colon', 'class 1'),
  ('OC(c1cc2c(Cl)cc(Cl)cc2c2cc(C(F)(F)F)ccc12)C1CCCCN1 (centres undefined)', 'HCT-15 colon', 'class 1'),
  ('CCCCCCCCCCCCCCCC1=NCC[N+]1(CCO)CCO', 'HCT-15 colon', 'class 0'),
  ('c1ccc(C2=Nc3ccccc3SC2)cc1', 'HCT-15 colon', 'class 0'),
  ('C#CC[C@@H]1C[C@]2(C)[C@H]3CC=C4[C@H]5[C@@H](C)[C@H](C)CC[C@]5(C(=O)NCCCCCCCCN)CC[C@@]4(C)[C@]3(C)CC[C@H]2C(C)(C)[C@H]1OC(C)=O', 'HCT-15 colon', 'class 1'),
  ('OC(c1cc(-c2ccc(C(F)(F)F)cc2)nc(-c2ccc(C(F)(F)F)cc2)c1)C1CCCCN1 (centres undefined)', 'HCT-15 colon', 'class 1'),
  ('COc1cc(-c2csc(NC(=O)Nc3cccc(C(F)(F)F)c3)n2)cc(OC)c1OC', 'HCT-15 colon', 'class 0'),
  ('COc1cc(NC(C)CCCN)c2ncccc2c1Oc1ccc(Cl)cc1 (centres undefined)', 'HCT-15 colon', 'class 0'),
  ('CC1=NOCC(=O)N1', 'HCT-15 colon', 'class 0'),
  ('O=C1c2ccccc2C(=O)c2c1oc1ccc3ccccc3c21', 'HCT-15 colon', 'class 0'),
  ('COC(=O)c1cc2oc(/C=N/NC(=O)c3cc4oc(-c5cccc(C(F)(F)F)c5)cc4[nH]3)cc2n1Cc1ccccc1', 'HCT-15 colon', 'class 0'),
  ('CN(C)CCOc1nc2c3ccncc3cc(-c3cccc(Cl)c3)c2c2cnccc12', 'HCT-15 colon', 'class 0'),
  ('Nc1ccc(C(OC(=O)c2cc3ccccc3c(Cc3c(O)c(C(=O)OC(c4ccc(N)cc4)(c4ccc(N)cc4)c4ccc(N)cc4)cc4ccccc34)c2O)(c2ccc(N)cc2)c2ccc(N)cc2)cc1', 'HCT-15 colon', 'class 0'),
  ('COc1ccc(/C(=C\c2cc(OC)c(OC)c(OC)c2)C(=O)N2CCCNCC2)cc1', 'HCT-15 colon', 'class 0'),
  ('CCCCNCC(O)c1cc(-c2ccc(C(F)(F)F)cc2)nc(-c2ccc(C(F)(F)F)cc2)c1 (centres undefined)', 'HCT-15 colon', 'class 1'),
  ('COc1ccc(/C(=C\c2cc(OC)c(OC)c(OC)c2)C(=O)N2CCN(c3ccccc3)CC2)cc1O', 'HCT-15 colon', 'class 0'),
  ('O=C(Nc1ccc(Oc2ccc(Nc3nc4ccccc4s3)cc2)cc1)Nc1ccc(Cl)c(C(F)(F)F)c1', 'HCT-15 colon', 'class 1'),
  ('CC1(C)CC[C@]2(C(=O)N3CCNCC3)CC[C@]3(C)C(=CC[C@@H]4[C@@]5(C)CCC(=O)C(C)(C)[C@@H]5CC[C@]43C)[C@@H]2C1', 'HCT-15 colon', 'class 0'),
  ('O=C(Nc1ccc2ncnc(Nc3ccc(F)c(Cl)c3)c2c1)c1cccs1', 'HCT-15 colon', 'class 0');
